Readings of Half-width (width of absorption spectrum at ½ of maximum absorbance) for the listed compounds
assay: Absorption spectrum of the compound in chloroform solution (spectral characteristics); format: physicochemical; conditions: 5×10^−6 mol/L, 1 cm cell
Quantity: Half-width (width of absorption spectrum at ½ of maximum absorbance) (nm)

- CCC1=C(C)/C(=C2\C(=O)C(c3[nH]c(C)c(CC)c3C)=C2O)N=C1C [R-1]: 23
- C=Cc1ccc(Cn2c(C)c(CC)c(C)c2C2=C([O-])/C(=C3/C(C)=C(CC)C(C)=[N+]3Cc3ccc(C=C)cc3)C2=O)cc1 [Exemplary compound 1-30]: 29
- C=C(C)C(=O)OCCN(CCOC(=O)C(=C)C)c1ccc(C2=C([O-])/C(=C3\C=CC(=[N+](CCOC(=O)C(=C)C)CCOC(=O)C(=C)C)C=C3NC(C)=O)C2=O)c(NC(C)=O)c1 [R-2]: 27
- C=C(C)C(=O)OCCOC(=O)C1=C(C)/C(=C2\C(=O)C(c3[nH]c(C)c(CC)c3C)=C2O)N=C1C [Exemplary compound 1-13]: 25
- CCN(CC)c1ccc(C2=C([O-])/C(=C3\C=CC(=[N+](CC)CC)C=C3NC(C)=O)C2=O)c(NC(C)=O)c1 [R-3]: 27

###

assay: Solubility in ethyl acetate, visual check for undissolved residue; format: physicochemical; details: 20.0 mg in 2 mL ethyl acetate, stirred at 40° C. for 10 minutes; no residue means solubility 1% by mass or more
Quantity: Solubility in ethyl acetate (presence or absence of undissolved residue)

* C=C(C)C(=O)OCCOC(=O)C1=C(C)/C(=C2\C(=O)C(c3[nH]c(C)c(CC)c3C)=C2O)N=C1C [Exemplary compound 1-13] | completely dissolved
* CCC1=C(C)/C(=C2\C(=O)C(c3[nH]c(C)c(CC)c3C)=C2O)N=C1C [R-1] | not completely dissolved
* CCN(CC)c1ccc(C2=C([O-])/C(=C3\C=CC(=[N+](CC)CC)C=C3NC(C)=O)C2=O)c(NC(C)=O)c1 [R-3] | not completely dissolved
* C=Cc1ccc(Cn2c(C)c(CC)c(C)c2C2=C([O-])/C(=C3/C(C)=C(CC)C(C)=[N+]3Cc3ccc(C=C)cc3)C2=O)cc1 [Exemplary compound 1-30] | completely dissolved
* C=C(C)C(=O)OCCN(CCOC(=O)C(=C)C)c1ccc(C2=C([O-])/C(=C3\C=CC(=[N+](CCOC(=O)C(=C)C)CCOC(=O)C(=C)C)C=C3NC(C)=O)C2=O)c(NC(C)=O)c1 [R-2] | not completely dissolved
